Tested Target: 5-HT2A receptor (Homo sapiens, UniProt P28223)
Sequence (P28223 whole entry): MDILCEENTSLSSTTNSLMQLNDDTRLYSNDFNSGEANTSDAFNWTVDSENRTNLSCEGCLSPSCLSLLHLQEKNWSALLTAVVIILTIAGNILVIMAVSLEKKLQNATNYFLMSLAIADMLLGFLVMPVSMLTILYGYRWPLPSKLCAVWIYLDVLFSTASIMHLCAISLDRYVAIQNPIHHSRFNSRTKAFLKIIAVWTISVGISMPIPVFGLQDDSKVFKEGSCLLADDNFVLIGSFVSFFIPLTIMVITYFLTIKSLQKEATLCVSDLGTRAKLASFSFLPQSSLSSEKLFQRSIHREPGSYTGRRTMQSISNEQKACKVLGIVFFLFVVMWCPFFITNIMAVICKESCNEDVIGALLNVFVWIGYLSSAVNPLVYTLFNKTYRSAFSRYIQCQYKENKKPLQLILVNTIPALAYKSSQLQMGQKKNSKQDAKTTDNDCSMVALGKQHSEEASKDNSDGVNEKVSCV
Test Summary: Functional activity, FLIPR calcium assay in CHO cells expressing human 5-HT2A
Type: cell-based
Set-up: expressed in transfected cells; host or cells: CHO cells
Condition Notes: CHO, read-out: h5-HT2A Relative Efficacy (%)
Structures can show the parent of a compound that is named as a salt.
Could you please mark 1 for values of Emax below 50% and 0 for values at or above it?

Does CSc1ccc2c(c1)N(C[C@H](C)N)CC2 [Example 39] have Emax strictly under 50%?
0

Does C[C@H](N)CN1CCc2cc(F)c(F)cc21 [Example 22] have Emax strictly under 50%?
0

Does Cc1cc2c(cc1Cl)N(C[C@H](C)N)CC2 [Example 14] have Emax strictly under 50%?
0

Does C[C@H](N)CN1CCc2ccc(N3CCOCC3)cc21 [Example 49, Fumarate] have Emax strictly under 50%?
1

Does C[C@H](N)CN1CCc2cc(Cl)ccc21 [Example 28] have Emax strictly under 50%?
0

Does CCc1cccc2c1N(C[C@H](C)N)CC2 [Example 37] have Emax strictly under 50%?
1

Does NCCN1CCc2ccc(Cl)cc21 [Example 51, Fumarate] have Emax strictly under 50%?
1

Does NCCN1CCc2ccc(Br)cc21 [Example 50, Fumarate] have Emax strictly under 50%?
1
